Just for reference, patent US20260022098A1 is where these values come from.

test system: Kunming mice; assay: Acute toxicity / median lethal dose (LD50) determination, subcutaneous injection; format: in vivo; parameters: key: if death occurred, (+) represented as positive; if no death occurred, (−) represented as negative; conditions: mice administered 20 mg/kg subcutaneously, presence of death within 24 h
Readout Kind: Acute toxicity

Molecule	Acute toxicity
CCO[C@]12C[C@H](OC)[C@@]3(OC(=O)c4ccco4)CC(C1[C@H]3OC(=O)c1ccc(OC)cc1)[C@]13C4[C@@H](OC)C2[C@H]1N(CC)C[C@]4(COC)CC[C@@H]3OC (some centres unmarked) [Compound 15]	−
CCO[C@]12C[C@H](OC)[C@@]3(OC(=O)C(C)C)CC(C1[C@H]3OC(=O)c1ccc(OC)cc1)[C@]13C4[C@@H](OC)C2[C@H]1N(CC)C[C@]4(COC)CC[C@@H]3OC (some centres unmarked) [Compound 81]	−
CCO[C@]12C[C@H](OC)[C@@]3(OC(=O)c4cccnc4)CC(C1[C@H]3OC(=O)c1cccnc1)[C@]13C4[C@@H](OC)C2[C@H]1N(CC)C[C@]4(COC)CC[C@@H]3OC (some centres unmarked) [Compound 27]	−
CCN1C[C@]2(COC)CC[C@H](OC)[C@@]34C5C[C@]6(O)[C@@H](OC)C[C@@](OC)(C5[C@H]6OC(=O)c5ccc(OC)cc5)C([C@H](OC)C23)[C@@H]14 (some centres unmarked) [Compound 1]	+

Let us move to another entry and its Acute toxicity.
I am curious: what Acute toxicity value has been reported for CCN1C[C@]2(COC)CC[C@H](OC)[C@@]34C5C[C@]6(OC(=O)c7ccc(F)cc7)[C@@H](OC)C[C@@](OC(C)=O)(C5[C@H]6OC(=O)c5ccc(OC)cc5)C([C@H](OC)C23)[C@@H]14 (some centres unmarked) [Compound 61] ? −

----------
Reported TI values follow for various compounds
tested on: Kunming mice; assay: Calculation of therapeutic index (TI = LD50/ED50); format: in vivo

Compound	TI
CCO[C@]12C[C@H](OC)[C@@]3(OC(=O)c4ccc(F)cc4)CC(C1[C@H]3OC(=O)c1ccc(OC)cc1)[C@]13C4[C@@H](OC)C2[C@H]1N(CC)C[C@]4(COC)CC[C@@H]3OC (some centres unmarked) [Compound 60]	>819.7
CCO[C@]12C[C@H](OC)[C@@]3(OC(=O)c4ccccc4F)CC(C1[C@H]3OC(=O)c1ccccc1F)[C@]13C4[C@@H](OC)C2[C@H]1N(CC)C[C@]4(COC)CC[C@@H]3OC (some centres unmarked) [Compound 69]	>943.4
CCO[C@]12C[C@H](OC)[C@@]3(OC(=O)CC(C)(C)C)CC(C1[C@H]3OC(=O)CC(C)(C)C)[C@]13C4[C@@H](OC)C2[C@H]1N(CC)C[C@]4(COC)CC[C@@H]3OC (some centres unmarked) [Compound 88]	>621.1

I am curious: what TI value has been reported for CCO[C@]12C[C@H](OC)[C@@]3(OC(=O)C4CCOCC4)CC(C1[C@H]3OC(=O)C1CCOCC1)[C@]13C4[C@@H](OC)C2[C@H]1N(CC)C[C@]4(COC)CC[C@@H]3OC (some centres unmarked) [Compound 23] ? >1369.9

Repeat for the following compound: CCO[C@]12C[C@H](OC)[C@@]3(OC(=O)c4ccco4)CC(C1[C@H]3OC(=O)c1ccc(OC)cc1)[C@]13C4[C@@H](OC)C2[C@H]1N(CC)C[C@]4(COC)CC[C@@H]3OC (some centres unmarked) [Compound 15] 773
